- experiment notes: inhibitors of TWEAK-Fn14 signaling, primary screen, luciferase reporter cells, uHTS (AID 1159606)
- condition context: TWEAK-stimulated Fn14 reporter cells, luciferase luminescence, 8 h; at 10 µM
The whole screen tested about 360,000 compounds, of which about 7,300 (2%) were called active. Rule as the data show it: active = inhibition above about 50%; inactive = the rest. For the sample, actives were picked, then their nearest neighbours and some compounds at random.
Outcomes: class 1 (active), class 0 (inactive)

>  <compound>
Cc1noc(/C=C/c2ccco2)c1S(=O)(=O)N1CCC(C(=O)N2CCc3ccccc32)CC1

>  <class name>
class 0

$$$$
>  <compound>
COc1ccc(NC(=O)C(Br)C(C)C)cc1 (stereo unspecified)

>  <class name>
class 0

$$$$
>  <compound>
O=C(Nc1ccc(N2CCCC2=O)cc1)c1cncc(Br)c1

>  <class name>
class 1

$$$$
>  <compound>
Cc1n[nH]c(=O)c2c(NC(=O)COC(=O)c3ncc(Cl)c(Cl)c3Cl)oc(C)c12

>  <class name>
class 0

$$$$
>  <compound>
COc1ccc(-c2c(C)nn3c(N4CCC(C(=O)N5CCCCC5)CC4)cc(C)nc23)cc1OC

>  <class name>
class 0

$$$$
>  <compound>
COc1ccc(NC(=O)CCCC(=O)c2ccccc2)cc1

>  <class name>
class 0

$$$$
>  <compound>
CNC(=O)C1CCN(S(=O)(=O)c2c(C)noc2/C=C/c2cccc(C)c2)CC1

>  <class name>
class 0

$$$$
>  <compound>
O=C(Nc1cccc(S(=O)(=O)N2CCCCC2)c1)c1cncc(Br)c1

>  <class name>
class 0

$$$$
>  <compound>
CCNC(=O)C1(C)CCN(Cc2ccc(C(=O)OCC)o2)C1 (stereo unspecified)

>  <class name>
class 0

$$$$
>  <compound>
COc1ccc(NC(=O)ON=C2c3ccccc3-c3ccccc32)cc1

>  <class name>
class 1

$$$$
>  <compound>
CC(C)NC(=O)c1ccccc1S(=O)c1ccccc1C#N (stereo unspecified)

>  <class name>
class 0

$$$$

---

- experiment notes: inhibitors of TWEAK-Fn14 signaling, primary screen, luciferase reporter cells, uHTS (AID 1159606)
- condition context: TWEAK-stimulated Fn14 reporter cells, luciferase luminescence, 8 h; at 10 µM; active compounds read high
In all, about 360,000 compounds went through this assay and about 7,300 (2%) were called active. Many of the other results were omitted from the sample, so actives are more common in it than they were.

>  <compound>
CCCc1c(-c2ccccc2F)ncn1Cc1ccccc1OC

>  <inhibition (%)>
2.25

$$$$
>  <compound>
Cn1c(SCC(=O)Nc2ccc(N3CCOCC3)cc2)nnc1C(F)(F)F

>  <inhibition (%)>
-2.56

$$$$
>  <compound>
COc1cccc(NC(=O)CC(c2ccc(OC(C)C)cc2)c2ccccc2OC)c1 (stereo not given)

>  <inhibition (%)>
-21.3

$$$$
>  <compound>
CC1=C(C)CC2C(=O)N(c3cccc4ccccc34)C(=O)C2C1 (stereo not given)

>  <inhibition (%)>
11.9

$$$$
>  <compound>
O=C(COC(=O)C1CCN(S(=O)(=O)c2ccc3c(c2)OCCO3)CC1)Nc1ccccc1OC(F)F

>  <inhibition (%)>
-22.5

$$$$

---

- experiment notes: inhibitors of TWEAK-Fn14 signaling, primary screen, luciferase reporter cells, uHTS (AID 1159606)
- condition context: TWEAK-stimulated Fn14 reporter cells, luciferase luminescence, 8 h; at 10 µM
The campaign covered roughly 360,000 compounds. About 7,300 (2%) were called active. Cut-off read from the data, not from the text of the source: active = inhibition above about 50%; inactive = the rest. What follows is part of a selection rich in actives, with near analogues and random picks from the rest.
Possible outcomes: active, inactive

>  <compound>
CC1(C)CC(=O)C=C(c2ccc(COC(=O)c3cc(F)cc(F)c3)cc2)C1=O

>  <class name>
inactive

$$$$
>  <compound>
CC1CCCC(C)N1/N=C/c1ccccc1OC(F)F (configuration not stated)

>  <class name>
inactive

$$$$
>  <compound>
COc1ccc(/C=C2/SC(=O)N(CCCCCC(=O)Nc3ccccc3C(=O)O)C2=S)cc1

>  <class name>
inactive

$$$$
>  <compound>
Cc1noc(C)c1C(=O)N(CC(=O)NC1CCCC1)Cc1ccccc1F

>  <class name>
inactive

$$$$
>  <compound>
O=C(NN=Cc1ccc2c(c1)CCC2)c1ccccc1O

>  <class name>
inactive

$$$$
>  <compound>
C(=C\c1ccccc1)/CSc1nnc(-c2cccnc2)n1Cc1ccco1

>  <class name>
inactive

$$$$
>  <compound>
CCOC(=O)[C@H]1Nc2ccc(Cl)cc2[C@@H]2[C@H]1C1CC(c3ccccc31)N2C(=O)OCc1ccccc1 (some centres not stated)

>  <class name>
inactive

$$$$
>  <compound>
O=C(NCc1ccccc1)C(=O)NCC1OCCN1S(=O)(=O)c1ccc(Br)cc1 (configuration not stated)

>  <class name>
inactive

$$$$
>  <compound>
Cc1ccc(-c2nnn(CC(=O)N(Cc3ccco3)C(C(=O)NC(C)(C)C)c3ccncc3)n2)o1 (configuration not stated)

>  <class name>
inactive

$$$$
>  <compound>
S=c1[nH]nc(/C=C/c2ccccc2)o1

>  <class name>
inactive

$$$$
>  <compound>
Cc1ccc(C)c(NC(CC(=O)c2ccccc2)C(=O)OCC(=O)c2cccs2)c1 (configuration not stated)

>  <class name>
inactive

$$$$
>  <compound>
COc1ccc(-c2[nH]ncc2/C=N/NC(=O)c2cc(Br)ccc2O)c(OC)c1

>  <class name>
inactive

$$$$
>  <compound>
CC(=O)c1nc(N2C(=O)C3CC=C(C)CC3C2=O)sc1C (configuration not stated)

>  <class name>
inactive

$$$$
>  <compound>
O=C(CSc1nnc(-c2cccnc2)n1Cc1ccco1)c1ccc(Cl)c(Cl)c1

>  <class name>
active

$$$$
>  <compound>
Cc1ccccc1C(CC(=O)c1cccs1)C(C#N)C#N (configuration not stated)

>  <class name>
active

$$$$
>  <compound>
O=c1oc(/C=C/c2ccccc2)nc2ccccc12

>  <class name>
active

$$$$
>  <compound>
COc1ccc(C(=O)Nc2ccccc2C(=O)N/N=C/c2ccc(O)c(OC)c2)cc1

>  <class name>
active

$$$$
>  <compound>
COc1ccc(/C=N/Nc2ccccc2C(=O)O)cc1

>  <class name>
active

$$$$
>  <compound>
O=C(CSc1nnc(-c2cnccn2)n1Cc1ccco1)c1ccc(Cl)c(Cl)c1

>  <class name>
inactive

$$$$
>  <compound>
Cc1c(CCC(=O)O)c(=O)oc2c(C)c(OCc3ccccc3Cl)ccc12

>  <class name>
active

$$$$
>  <compound>
CC(C)c1ccccc1OCC(O)CN(CC(O)COc1cccc2ccccc12)C(C)C (configuration not stated)

>  <class name>
inactive

$$$$
>  <compound>
CCOC(=O)CCc1c(C)c2ccc(OCc3nn[nH]n3)c(C)c2oc1=O

>  <class name>
inactive

$$$$

---

- experiment notes: inhibitors of TWEAK-Fn14 signaling, primary screen, luciferase reporter cells, uHTS (AID 1159606)
- condition context: TWEAK-stimulated Fn14 reporter cells, luciferase luminescence, 8 h; at 10 µM; active compounds read high
Hit rate of the full screen: of about 360,000 compounds, about 7,300 (2%) were called active. For the sample, actives were picked, then their nearest neighbours and some compounds at random.
Entries and their inhibition values follow.

>  <molecule>
CC(=O)c1sc(N/N=C/c2ccc(C(C)C)cc2)nc1C

>  <inhibition [%]>
-16.6

$$$$
>  <molecule>
Cc1cccc(N2CCN(C(=O)CCS(=O)(=O)c3ccc4c(c3)NC(=O)C(C)S4)CC2)c1C (stereo not drawn)

>  <inhibition [%]>
50.6

$$$$
>  <molecule>
O=C(Nc1cccc(F)c1)[C@@H]1CCCN1

>  <inhibition [%]>
-1.09

$$$$
>  <molecule>
Cc1cc(Br)cn2c(Cc3ccccc3C(F)(F)F)c(-c3ccc(Cl)cc3)nc12

>  <inhibition [%]>
26.9

$$$$
>  <molecule>
O=C(NCCOc1ccccc1)c1ccccc1F

>  <inhibition [%]>
30.7

$$$$
>  <molecule>
COc1cccc(NS(=O)(=O)c2ccc3[nH]cc(C(=O)NCCCOC(C)C)c(=O)c3c2)c1

>  <inhibition [%]>
-0.08

$$$$
>  <molecule>
O=[N+]([O-])c1ccc(S(=O)(=O)Nc2cccc(-c3ccc(N4CCCC4)nn3)c2)cc1

>  <inhibition [%]>
-10.7

$$$$
>  <molecule>
CN(C)CCCOc1ccc(-c2ccc3nccn3c2)cn1

>  <inhibition [%]>
-18.9

$$$$
>  <molecule>
CCOc1cc(/C=N/NC(=O)c2ccncc2)cc(Br)c1O

>  <inhibition [%]>
-8.09

$$$$
>  <molecule>
CC[C@@H]1CC2=C(C(=O)OC(C)(C)O2)[C@@H](CC)O1

>  <inhibition [%]>
1.77

$$$$
>  <molecule>
O=C(CCNC(=O)Cn1ccc2ccccc2c1=O)NCCC1=CCCCC1

>  <inhibition [%]>
-2.43

$$$$
>  <molecule>
COc1cccc(-c2nc3nc(C)cc(C)n3c2NC2CCCCC2)c1

>  <inhibition [%]>
-20.7

$$$$
>  <molecule>
OC(c1ccccc1)c1nc(-c2cnc3ccccc3c2)cs1 (stereo not drawn)

>  <inhibition [%]>
12.8

$$$$
>  <molecule>
CC(=O)C1=C(C)NC2=C(C(=O)CC(C)(C)C2)C1C (stereo not drawn)

>  <inhibition [%]>
16

$$$$
>  <molecule>
CCOC(=O)[C@]12CCCC=C1N(Cc1ccc3c(c1)OCO3)C(=O)[C@H](CC(=O)N1CCN(C(=O)c3ccco3)CC1)C2

>  <inhibition [%]>
10.3

$$$$
>  <molecule>
Cc1cccc(C(=O)O)c1[N+](=O)[O-]

>  <inhibition [%]>
-0.13

$$$$
>  <molecule>
NS(=O)(=O)c1cc(C(=O)NCCOc2ccccc2)c(Cl)cc1Cl

>  <inhibition [%]>
3.06

$$$$
>  <molecule>
CNC(=O)c1sc(Nc2ccc(OCc3ccccc3)cc2)nc1C

>  <inhibition [%]>
32.3

$$$$
>  <molecule>
COc1cccc2sc(Nc3nc(C)c(C(C)=O)s3)nc12

>  <inhibition [%]>
94.3

$$$$
>  <molecule>
CC1Sc2ccc(S(=O)(=O)CCC(=O)NCc3ccccc3Cl)cc2NC1=O (stereo not drawn)

>  <inhibition [%]>
0.42

$$$$
>  <molecule>
Cc1noc(C)c1-c1nc(CSc2ccc(Cl)cc2)no1

>  <inhibition [%]>
-29

$$$$
>  <molecule>
COC(=O)c1ccc2c(c1)S(=O)(=O)NC2C (stereo not drawn)

>  <inhibition [%]>
-6.18

$$$$
>  <molecule>
CCCCn1nnnc1C(c1ccccc1)N1CCN(c2ccccc2OC)CC1 (stereo not drawn)

>  <inhibition [%]>
-11.6

$$$$
